# tested system: IFN-γ (interferon gamma) (UniProt P01579 24-161)
# Sequence (P01579 24-161): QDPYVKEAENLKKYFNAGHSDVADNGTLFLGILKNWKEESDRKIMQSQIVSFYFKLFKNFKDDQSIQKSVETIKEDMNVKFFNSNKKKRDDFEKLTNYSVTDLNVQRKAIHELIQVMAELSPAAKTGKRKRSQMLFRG
# assay name: graphene-Nafion FET biosensor
experimental readout: pKd
As a rule, pKd stands for the negative log10 of the concentration, concentration in M.

Fill in: pKd of GGGGTTGTTTGTGTTGGGTGTTGTGT (ssDNA, 5'-NH2) [IFN-γ-specific aptamer] is ___
8.36
